experiment: Lapatinib pharmacokinetics and uptake in rat brain tissue (BT); format: in vivo, rats; conditions: male, Wistar, rat, brain tissue homogenate, po, 100 mg/kg, lapatinib p.o. 100 mg/kg alone, 0.5 h; read-out: Clapatinib in BT, S (medium value)
measurement.label: concentration at 0.5 h (ng/mL)
Field: numeric (ng/mL). Do not append units.

For reference, reported concentration at 0.5 h for CS(=O)(=O)CCNCc1ccc(-c2ccc3ncnc(Nc4ccc(OCc5cccc(F)c5)c(Cl)c4)c3c2)o1 stands at 44.9

====

Test: Lapatinib pharmacokinetics and uptake in rat brain tissue (BT)
Assay type: in vivo, rats
Details: male, Wistar, rat, brain, po, 100 mg/kg, brain tissue; lapatinib 100 mg/kg oral + 5 mg/kg elacridar (IE+L)
Procedure: This study was conducted on rats, which are a promising model to predict P-gp-based drug-drug interactions at the human BBB [15]. The animals were allowed to acclimate for one week before the beginning of the experiments. Adult male Wistar-strain rats (weight 470–525 g) were used in the study. […]
measurement.label: AUC(0-inf) (ng·h/mL)
Field: numeric (ng·h/mL). Do not append units.

For reference, reported AUC(0-inf) for CS(=O)(=O)CCNCc1ccc(-c2ccc3ncnc(Nc4ccc(OCc5cccc(F)c5)c(Cl)c4)c3c2)o1 [lapatinib] stands at 2520

====

assay: Lapatinib pharmacokinetics and uptake in rat cerebrospinal fluid (CSF); format: in vivo, rats; conditions: male, Wistar, rat, cerebrospinal fluid, oral, lapatinib 100 mg/kg + elacridar, 3 h; read-out: Clapatinib in CSF, S
measurement.label: concentration at 3 h (ng/mL)
Field: numeric (ng/mL). Do not append units.

For reference, reported concentration at 3 h for CS(=O)(=O)CCNCc1ccc(-c2ccc3ncnc(Nc4ccc(OCc5cccc(F)c5)c(Cl)c4)c3c2)o1 stands at 51.2

====

assay: Lapatinib pharmacokinetics and uptake in rat brain tissue (BT); type: in vivo, rats; conditions: male, Wistar, rat, brain, oral, lapatinib 100 mg/kg + elacridar, 1 h; read-out: Clapatinib in BT, S
measurement.label: concentration at 1 h (ng/mL)
Field: numeric (ng/mL). Do not append units.

For reference, reported concentration at 1 h for CS(=O)(=O)CCNCc1ccc(-c2ccc3ncnc(Nc4ccc(OCc5cccc(F)c5)c(Cl)c4)c3c2)o1 [lapatinib] stands at 98.6

====

assay: Lapatinib pharmacokinetics in rat blood plasma (BP), HPLC-MS/MS, noncompartmental analysis; format: in vivo, rats; settings: male, Wistar, rat, plasma, oral, lapatinib 100 mg/kg + elacridar, 3 h; read-out: Clapatinib in BP, S
measurement.label: concentration at 3 h (ng/mL)
Field: numeric (ng/mL). Do not append units.

For reference, reported concentration at 3 h for CS(=O)(=O)CCNCc1ccc(-c2ccc3ncnc(Nc4ccc(OCc5cccc(F)c5)c(Cl)c4)c3c2)o1 stands at 2460

====

experiment: Lapatinib pharmacokinetics and uptake in rat brain tissue (BT); type: in vivo, rats; conditions: male, Wistar, rat, brain tissue homogenate, po, 100 mg/kg, lapatinib p.o. 100 mg/kg alone, 1 h; read-out: Clapatinib in BT, single rat
measurement.label: concentration at 1 h (ng/mL)
Field: numeric (ng/mL). Do not append units.

For reference, reported concentration at 1 h for CS(=O)(=O)CCNCc1ccc(-c2ccc3ncnc(Nc4ccc(OCc5cccc(F)c5)c(Cl)c4)c3c2)o1 [lapatinib] stands at 66.5

====

experiment: Lapatinib pharmacokinetics in rat blood plasma (BP), HPLC-MS/MS, noncompartmental analysis; type: in vivo, rats; conditions: male, Wistar, rat, plasma, po, 100 mg/kg, blood plasma; lapatinib 100 mg/kg oral alone (IIL)
measurement.label: AUC(0-t) (ng·h/mL)
Field: numeric (ng·h/mL). Do not append units.

For reference, reported AUC(0-t) for CS(=O)(=O)CCNCc1ccc(-c2ccc3ncnc(Nc4ccc(OCc5cccc(F)c5)c(Cl)c4)c3c2)o1 stands at 24400

====

experiment: Lapatinib pharmacokinetics in rat blood plasma (BP), HPLC-MS/MS, noncompartmental analysis; assay type: in vivo, rats; settings: male, Wistar, rat, plasma, po, 100 mg/kg, lapatinib p.o. 100 mg/kg alone, 2 h; read-out: Clapatinib in BP, single rat
measurement.label: concentration at 2 h

For reference, reported concentration at 2 h for CS(=O)(=O)CCNCc1ccc(-c2ccc3ncnc(Nc4ccc(OCc5cccc(F)c5)c(Cl)c4)c3c2)o1 [lapatinib] stands at 1950 ng/mL

====

assay: Lapatinib pharmacokinetics in rat blood plasma (BP), HPLC-MS/MS, noncompartmental analysis; assay type: in vivo, rats; conditions: male, Wistar, rat, plasma, oral, lapatinib 100 mg/kg + elacridar, 24 h; read-out: Clapatinib in BP, single rat
measurement.label: concentration at 24 h
Reply with the number and its unit after it.

For reference, reported concentration at 24 h for CS(=O)(=O)CCNCc1ccc(-c2ccc3ncnc(Nc4ccc(OCc5cccc(F)c5)c(Cl)c4)c3c2)o1 stands at 1300 ng/mL

====

Assay: Lapatinib pharmacokinetics and uptake in rat brain tissue (BT);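 for BT corr (BT homogenate corrected), single rat: brain concentration corrected for residual brain blood by the Fridén method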
Format: in vivo, rats
Conditions: male, Wistar, rat, brain tissue homogenate, po, 100 mg/kg, lapatinib p.o. 100 mg/kg alone, 3 h; read-out: BT corr (BT homogenate corrected), single rat
Experimental: This study was conducted on rats, which are a promising model to predict P-gp-based drug-drug interactions at the human BBB [15]. The animals were allowed to acclimate for one week before the beginning of the experiments. Adult male Wistar-strain rats (weight 470–525 g) were used in the study. […]
measurement.label: concentration at 3 h (ng/mL)
Field: numeric (ng/mL). Do not append units.

For reference, reported concentration at 3 h for CS(=O)(=O)CCNCc1ccc(-c2ccc3ncnc(Nc4ccc(OCc5cccc(F)c5)c(Cl)c4)c3c2)o1 stands at 139

====

Assay: Lapatinib pharmacokinetics and uptake in rat brain tissue (BT)
Format: in vivo, rats
Details: male, Wistar, rat, brain tissue homogenate, corrected for residual blood, po, 100 mg/kg, lapatinib p.o. 100 mg/kg alone, 0.25 h; read-out: BT corr (BT homogenate corrected), S
Experimental: This study was conducted on rats, which are a promising model to predict P-gp-based drug-drug interactions at the human BBB [15]. The animals were allowed to acclimate for one week before the beginning of the experiments. Adult male Wistar-strain rats (weight 470–525 g) were used in the study. […]
measurement.label: concentration at 0.25 h (ng/mL)
Field: numeric (ng/mL). Do not append units.

For reference, reported concentration at 0.25 h for CS(=O)(=O)CCNCc1ccc(-c2ccc3ncnc(Nc4ccc(OCc5cccc(F)c5)c(Cl)c4)c3c2)o1 [lapatinib] stands at 27.9

====

assay: Lapatinib pharmacokinetics and uptake in rat cerebrospinal fluid (CSF); format: in vivo, rats; conditions: male, Wistar, rat, cerebrospinal fluid (CSF), po, 100 mg/kg, lapatinib p.o. 100 mg/kg alone, 8 h; read-out: Clapatinib in CSF, single rat
measurement.label: concentration at 8 h (ng/mL)
Field: numeric (ng/mL). Do not append units.

For reference, reported concentration at 8 h for CS(=O)(=O)CCNCc1ccc(-c2ccc3ncnc(Nc4ccc(OCc5cccc(F)c5)c(Cl)c4)c3c2)o1 [lapatinib] stands at 24.4

====

assay: Lapatinib pharmacokinetics and uptake in rat cerebrospinal fluid (CSF); type: in vivo, rats; conditions: male, Wistar, rat, cerebrospinal fluid, oral, lapatinib 100 mg/kg + elacridar, 6 h; read-out: Clapatinib in CSF, single rat
measurement.label: concentration at 6 h (ng/mL)
Field: numeric (ng/mL). Do not append units.

For reference, reported concentration at 6 h for CS(=O)(=O)CCNCc1ccc(-c2ccc3ncnc(Nc4ccc(OCc5cccc(F)c5)c(Cl)c4)c3c2)o1 stands at 4.27

====

assay: Lapatinib pharmacokinetics in rat blood plasma (BP), HPLC-MS/MS, noncompartmental analysis; assay type: in vivo, rats; details: male, Wistar, rat, plasma, po, 100 mg/kg, lapatinib p.o. 100 mg/kg alone, 8 h; read-out: Clapatinib in BP, S (medium value)
measurement.label: concentration at 8 h (ng/mL)
Field: numeric (ng/mL). Do not append units.

For reference, reported concentration at 8 h for CS(=O)(=O)CCNCc1ccc(-c2ccc3ncnc(Nc4ccc(OCc5cccc(F)c5)c(Cl)c4)c3c2)o1 [lapatinib] stands at 1940

====

Assay: Lapatinib pharmacokinetics in rat blood plasma (BP), HPLC-MS/MS, noncompartmental analysis
Format: in vivo, rats
Conditions: male, Wistar, rat, plasma, po, 100 mg/kg, lapatinib p.o. 100 mg/kg alone, 4 h; read-out: Clapatinib in BP, S (medium value)
Experimental: This study was conducted on rats, which are a promising model to predict P-gp-based drug-drug interactions at the human BBB [15]. The animals were allowed to acclimate for one week before the beginning of the experiments. Adult male Wistar-strain rats (weight 470–525 g) were used in the study. […]
measurement.label: concentration at 4 h (ng/mL)
Field: numeric (ng/mL). Do not append units.

For reference, reported concentration at 4 h for CS(=O)(=O)CCNCc1ccc(-c2ccc3ncnc(Nc4ccc(OCc5cccc(F)c5)c(Cl)c4)c3c2)o1 stands at 3260
